- Target Desc: Mitogen-activated protein kinase kinase kinase 14 (Homo sapiens)
- Test Protocol: Inhibition of recombinant human GST-tagged MAP3K14 autophosphorylation after 1 hr by Alpha screen assay
Reported Property: pIC50
# pIC50 is unitless: minus log10 of the molar concentration; print number only

Asked: # pIC50 lookup, item CNC(=O)c1ccc(C)c(Nc2nccc(-c3cc(C#N)c4c(c3)[C@@](C)(CO)CN4)n2)c1
Given back: 8.74

====

- Target Desc: Mitogen-activated protein kinase kinase kinase 14 (Homo sapiens, UniProt Q99558)
- Sequence (Q99558 whole entry): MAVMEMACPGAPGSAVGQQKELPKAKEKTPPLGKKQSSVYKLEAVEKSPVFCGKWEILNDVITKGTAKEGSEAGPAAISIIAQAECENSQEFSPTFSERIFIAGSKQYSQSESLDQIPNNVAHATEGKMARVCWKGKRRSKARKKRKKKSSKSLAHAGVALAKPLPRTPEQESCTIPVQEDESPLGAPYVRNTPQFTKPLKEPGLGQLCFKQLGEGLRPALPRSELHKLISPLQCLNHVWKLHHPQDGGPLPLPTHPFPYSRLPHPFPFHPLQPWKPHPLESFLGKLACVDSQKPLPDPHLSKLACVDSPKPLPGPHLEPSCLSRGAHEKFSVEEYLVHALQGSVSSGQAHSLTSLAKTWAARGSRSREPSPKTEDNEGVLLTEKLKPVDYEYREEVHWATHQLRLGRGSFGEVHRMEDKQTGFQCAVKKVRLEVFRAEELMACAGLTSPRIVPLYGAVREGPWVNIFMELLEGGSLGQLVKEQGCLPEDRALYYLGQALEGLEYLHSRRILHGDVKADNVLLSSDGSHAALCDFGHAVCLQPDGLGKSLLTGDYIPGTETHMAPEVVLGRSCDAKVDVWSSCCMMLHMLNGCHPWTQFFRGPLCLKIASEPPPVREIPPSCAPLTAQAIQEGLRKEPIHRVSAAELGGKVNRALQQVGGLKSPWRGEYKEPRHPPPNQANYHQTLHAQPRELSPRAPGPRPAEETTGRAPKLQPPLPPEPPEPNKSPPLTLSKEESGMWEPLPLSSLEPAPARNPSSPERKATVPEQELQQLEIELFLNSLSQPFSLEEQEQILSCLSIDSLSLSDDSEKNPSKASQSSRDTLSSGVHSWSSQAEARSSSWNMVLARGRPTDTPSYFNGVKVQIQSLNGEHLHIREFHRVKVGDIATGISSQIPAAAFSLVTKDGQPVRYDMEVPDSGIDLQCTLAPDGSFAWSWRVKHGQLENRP
- Test Protocol: Inhibition of MAP3K14 in human L363 assessed as decrease in IKKalpha phosphorylation level after 2 hrs by sandwich immuno assay
Each record is given True if its reported IC50 is strictly below 6 nM. Records at or above 6 nM are given False.

Asked: Report whether reported IC50 is lower than 6 nM (strictly) for CNC(=O)c1ccc(OC(C)C)c(Nc2nccc(-c3cc(C#N)c4c(c3)[C@@](C)(CO)CN4)n2)c1
Given back: False

Asked: Next compound up: CNC(=O)c1ccc(C)c(Nc2nccc(-c3cc(C#N)c4c(c3)[C@@](C)(CO)CN4)n2)c1
Given back: True

Asked: Next compound up: CN1CC(F)C(Oc2ccc(C#N)cc2Nc2nccc(-c3cc(C#N)c4c(c3)[C@@](C)(CO)CN4)n2)C1 (stereo partly drawn)
Given back: False

Asked: Next compound up: Cc1cc(CCN2CCOCC2)c(C#N)cc1Nc1nccc(-c2cc(C#N)c3c(c2)[C@@](C)(CO)CN3)n1
Given back: True

Asked: Next compound up: C[C@]1(CO)CNc2c(C#N)cc(-c3ccnc(Nc4cc(C#N)ccc4CO)n3)cc21
Given back: False

Asked: Next compound up: C[C@]1(CO)CNc2c(C#N)cc(-c3ccnc(Nc4cc(C#N)ccc4OC4CC4)n3)cc21
Given back: False

Asked: Next compound up: CC(C)Oc1ccc(CO)cc1Nc1nccc(-c2cc(C#N)c3c(c2)[C@@](C)(CO)CN3)n1
Given back: False
